Molecular target: BIV TAR RNA
Test: EMSA binding to BIV TAR
Settings: positional scanning library, Table S1
Non-standard residues stand in square brackets, D forms with d. Residues, ends and D or L forms follow the SMILES beside them.
# Kd annotations
Response body: numeric value in nM, unit text excluded.

molecule	Kd / nM
CC[C@H](C)[C@@H]1NC(=O)[C@H](CCCNC(=N)N)NC(=O)[C@H](CCCNC(=N)N)NC(=O)CNC(=O)[C@H](CCCCN)NC(=O)[C@H](CCCNC(=N)N)NC(=O)[C@H]([C@@H](C)O)NC(=O)[C@H](CCCNC(=N)N)NC(=O)[C@H](C)NC(=O)[C@H](CCCNC(=N)N)NC(=O)[C@@H]2CCCN2C(=O)[C@H]2CCCN2C(=O)[C@H]([C@@H](C)CC)NC(=O)[C@H](CCCNC(=N)N)NC1=O [JB-66] (cyclo(RARTRKGRRIRI[dP]P))	1

API: the following record is the query input.
Query: Kd; subject: CC[C@H](C)[C@@H]1NC(=O)[C@H](CCCNC(=N)N)NC(=O)[C@H](C(C)C)NC(=O)[C@H](CCCNC(=N)N)NC(=O)[C@H](CCCNC(=N)N)NC(=O)CNC(=O)[C@H](CCCCN)NC(=O)[C@H](CCCNC(=N)N)NC(=O)[C@H]([C@@H](C)O)NC(=O)[C@H](CCCNC(=N)N)NC(=O)[C@H](C(C)C)NC(=O)[C@H](CCCNC(=N)N)NC(=O)[C@@H]2CCCN2C(=O)[C@H]2CCCN2C1=O [JB-76] (cyclo(RVRTRKGRRVRI[dP]P)) 1

----------
Biological target: BIV TAR RNA
Test: EMSA binding to BIV TAR
Conditions: positional scanning library, Table S1
Non-standard residues stand in square brackets, D forms with d. Residues, ends and D or L forms follow the SMILES beside them.
assay-metric: Kd

Below: 2 compounds and their reported Kd.
compound	assay-metric	result-value
CC[C@H](C)[C@@H]1NC(=O)[C@H](CCCNC(=N)N)NC(=O)[C@H](C)NC(=O)[C@H](CCCNC(=N)N)NC(=O)[C@H](CCCNC(=N)N)NC(=O)CNC(=O)[C@H](CCCCN)NC(=O)[C@H](CCCNC(=N)N)NC(=O)[C@H]([C@@H](C)O)NC(=O)[C@H](CCCNC(=N)N)NC(=O)[C@H](C(C)C)NC(=O)[C@H](CCCNC(=N)N)NC(=O)[C@@H]2CCCN2C(=O)[C@H]2CCCN2C1=O [JB-75] (cyclo(RVRTRKGRRARI[dP]P))	Kd	1 to 5 nM
CC[C@H](C)[C@@H]1NC(=O)[C@H](CCCNC(=N)N)NC(=O)[C@H](CCCNC(=N)N)NC(=O)CNC(=O)[C@H](CCCCN)NC(=O)[C@H](CCCNC(=N)N)NC(=O)[C@H]([C@@H](C)O)NC(=O)[C@H](CCCNC(=N)N)NC(=O)[C@H](C(C)C)NC(=O)[C@H](CCCCN)NC(=O)[C@@H]2CCCN2C(=O)[C@H]2CCCN2C(=O)[C@H]([C@@H](C)CC)NC(=O)[C@H](CCCNC(=N)N)NC1=O [JB-60] (cyclo(KVRTRKGRRIRI[dP]P))	Kd	> 5000 nM

API: the following record is the query input.
Query: Kd; subject: CC[C@H](C)[C@@H]1NC(=O)[C@H](CCCNC(=N)N)NC(=O)[C@H](CCCNC(=N)N)NC(=O)CNC(=O)[C@H](CCCCN)NC(=O)[C@H](CCCNC(=N)N)NC(=O)[C@H]([C@@H](C)O)NC(=O)[C@H](CCCNC(=N)N)NC(=O)[C@H]([C@@H](C)O)NC(=O)[C@H](CCCNC(=N)N)NC(=O)[C@@H]2CCCN2C(=O)[C@H]2CCCN2C(=O)[C@H]([C@@H](C)CC)NC(=O)[C@H](CCCNC(=N)N)NC1=O [JB-65] (cyclo(RTRTRKGRRIRI[dP]P)) < 1 nM

----------
Biological target: HIV-1 TAR RNA
Assay type: binding
Settings: EMSA; positional scanning library, Table S1; with tRNA; read-out: Kd (nM) w/tRNA
Non-standard residues stand in square brackets, D forms with d. Residues, ends and D or L forms follow the SMILES beside them.
assay-metric: Kd

Below: 4 compounds and their reported Kd.
compound	result-value
CC[C@H](C)[C@@H]1NC(=O)[C@H](CCCNC(=N)N)NC(=O)[C@H](CCCNC(=N)N)NC(=O)CNC(=O)[C@H](CCCCN)NC(=O)[C@H](CCCNC(=N)N)NC(=O)[C@H]([C@@H](C)O)NC(=O)[C@H](CCCNC(=N)N)NC(=O)[C@H](C(C)C)NC(=O)[C@H](CCCNC(=N)N)NC(=O)[C@@H]2CCCN2C(=O)[C@H]2CCCN2C(=O)[C@H]([C@@H](C)CC)NC(=O)[C@H](Cc2ccc(O)cc2)NC1=O [JB-78] (cyclo(RVRTRKGRRIYI[dP]P))	> 1000 nM
CC[C@H](C)[C@@H]1NC(=O)[C@H](CCCNC(=N)N)NC(=O)[C@H](C(C)C)NC(=O)[C@H](CCCNC(=N)N)NC(=O)[C@H](CCCNC(=N)N)NC(=O)CNC(=O)[C@H](CCCCN)NC(=O)[C@H](CCCNC(=N)N)NC(=O)[C@H]([C@@H](C)O)NC(=O)[C@H](CCCNC(=N)N)NC(=O)[C@H](C(C)C)NC(=O)[C@H](CCCNC(=N)N)NC(=O)[C@@H]2CCCN2C(=O)[C@H]2CCCN2C1=O [JB-76] (cyclo(RVRTRKGRRVRI[dP]P))	< 50 nM
CC[C@H](C)[C@@H]1NC(=O)[C@H](CCCNC(=N)N)NC(=O)[C@H](CCCNC(=N)N)NC(=O)CNC(=O)[C@H](CCCCN)NC(=O)[C@H](CCCNC(=N)N)NC(=O)[C@H]([C@@H](C)O)NC(=O)[C@H](CCCNC(=N)N)NC(=O)[C@H](C(C)C)NC(=O)[C@H](CCC(N)=O)NC(=O)[C@@H]2CCCN2C(=O)[C@H]2CCCN2C(=O)[C@H]([C@@H](C)CC)NC(=O)[C@H](CCCNC(=N)N)NC1=O [JB-61] (cyclo(QVRTRKGRRIRI[dP]P))	> 1000 nM
CC[C@H](C)[C@@H]1NC(=O)[C@H](CCCNC(=N)N)NC(=O)[C@H](CCCNC(=N)N)NC(=O)CNC(=O)[C@H](CCCCN)NC(=O)[C@H](CCCNC(=N)N)NC(=O)[C@H]([C@@H](C)O)NC(=O)[C@H](CCCNC(=N)N)NC(=O)[C@H](C(C)C)NC(=O)[C@H](CCCNC(=N)N)NC(=O)[C@@H]2CCCN2C(=O)[C@H]2CCCN2C(=O)[C@H]([C@@H](C)CC)NC(=O)[C@H](Cc2c[nH]c3ccccc23)NC1=O [JB-79] (cyclo(RVRTRKGRRIWI[dP]P))	> 1000 nM

API: the following record is the query input.
Query: Kd; subject: CC[C@H](C)[C@@H]1NC(=O)[C@H](CCCNC(=N)N)NC(=O)[C@H](CCCNC(=N)N)NC(=O)CNC(=O)[C@H](CCCCN)NC(=O)[C@H](CCC(N)=O)NC(=O)[C@H]([C@@H](C)O)NC(=O)[C@H](CCCNC(=N)N)NC(=O)[C@H](C(C)C)NC(=O)[C@H](CCCNC(=N)N)NC(=O)[C@@H]2CCCN2C(=O)[C@H]2CCCN2C(=O)[C@H]([C@@H](C)CC)NC(=O)[C@H](CCCNC(=N)N)NC1=O [JB-67] (cyclo(RVRTQKGRRIRI[dP]P)) > 1000 nM

Source of measurements: paper PMC6379670
